test: In vitro metabolism test of fluorescein-labeled peptides in liver extract solution (HPLC); type: in vitro ADME; conditions: liver extract solution (supernatant of liver homogenate); mouse liver extract solution, 37° C., 60-minute incubation; read-out: residual ratio of unchanged peptide in liver extract solution
Where a SMILES comes first, the peptide text is derived from it. The star is where a group is joined. 5FAM = O=C1OC2(c3ccc(O)cc3Oc3cc(O)ccc32)c2ccc(C(=O)*)cc21

molecule	remaining at 1 h
CC(C)C[C@@H]1NC(=O)[C@H](Cc2c[nH]cn2)NC(=O)[C@H](CCCNC(=N)N)NC(=O)[C@H](C(C)C)NC(=O)[C@H](C(C)C)NC(=O)[C@H](CCCCNC(=O)c2ccc3c(c2)C(=O)OC32c3ccc(O)cc3Oc3cc(O)ccc32)NC(=O)[C@H](CCCCN)NC(=O)[C@H](CCC(N)=O)NC(=O)[C@H](CCC(N)=O)NC1=O [[C](Flu)-K004K] (cyclo(K(5FAM)VVRHLQQK))	~50%

* * *

test: In vitro metabolism test of fluorescein-labeled peptides in liver extract solution (HPLC); assay type: in vitro ADME; conditions: liver extract solution (supernatant of liver homogenate); mouse liver extract solution, 37° C., five minutes; read-out: residual ratio of unchanged peptide in liver extract solution
Where a SMILES comes first, the peptide text is derived from it. The star is where a group is joined. 5FAM = O=C1OC2(c3ccc(O)cc3Oc3cc(O)ccc32)c2ccc(C(=O)*)cc21

compound	remaining at 5 min
CC(C)C[C@@H]1NC(=O)[C@H](Cc2c[nH]cn2)NC(=O)[C@H](CCCNC(=N)N)NC(=O)[C@H](C(C)C)NC(=O)[C@H](C(C)C)NC(=O)[C@H](CCCCNC(=O)c2ccc3c(c2)C(=O)OC32c3ccc(O)cc3Oc3cc(O)ccc32)NC(=O)[C@H](CS)NC(=O)[C@H](CCC(N)=O)NC(=O)[C@H](CCC(N)=O)NC1=O [[C](Flu)-K004C, reference compound] (cyclo(K(5FAM)VVRHLQQC))	40%

Origin of the recorded values: patent US20100111838A1
